These measurements were taken from patent US10875855B2.

- System: influenza A virus (A/PR/8/34)
- assay info: MDCK cytopathic effect (CPE) cell protection assay, ATP detection
- Assay type: cell-based
- assay conditions: Table 1; MDCK cells, A/PR/8/34, 72 hours, 50% cell protection, mean all; class symbol; read-out: MDCK IC50
pIC50: −log10 of the molar value.
Here, each record is paired with measured pIC50 data.

INSERT INTO assay_data (molecule, target_or_test_system, test_value) VALUES
  ('CC(C)(C)[C@@H](CC(O)C(F)(F)F)Nc1nc(-c2c[nH]c3ncc(F)cc23)ncc1F (stereo partly shown) [Compound 67]', 'influenza A virus (A/PR/8/34)', '> 6.52'),
  ('CC1([C@@H](CC(=O)O)Nc2nc(-c3c[nH]c4ncc(F)cc34)ncc2F)CC1 [Compound 92]', 'influenza A virus (A/PR/8/34)', '5.48 to 6.52');

// sample CC(C)(C)[C@@H](CC(O)CO)Nc1nc(-c2c[nH]c3ncc(F)cc23)ncc1F (stereo partly shown) [Compound 71] , its pIC50 was > 6.52

Sample CC1(C(CC(=O)O)Nc2nc(-c3c[nH]c4ncc(F)cc34)ncc2F)CCC1 (stereo not shown) [Compound 88] ; pIC50 observed: > 6.52

pIC50 reading for CC1([C@@H](CC(=O)O)Nc2nc(-c3c[nH]c4ncc(F)cc34)c(C#N)cc2F)CCCC1 [Compound 8] : > 6.52

For this molecule ( CC(C)(C)C(Nc1nc(-c2c[nH]c3ncc(F)cc23)ncc1F)C1CC1C(=O)O (single isomer, unassigned) [Compound 52] ), measured pIC50 is > 6.52

Documented pIC50 of CCC(C)(C)C(CC(=O)O)Nc1nc(-c2c[nH]c3ncc(F)cc23)ncc1F (stereo not shown) [Compound 17] : 5.48 to 6.52
